Test system: M. tuberculosis H37Rv
Settings: microdilution broth, 96-well, 2 × 10^5 CFU/mL, 37 °C 14 days, resazurin 48 h; conducted twice with three technical replicates each
Square brackets hold non-standard residues; d marks the D form. Peptide text beside a SMILES is read from it.
Let's look at some molecules and their measured MIC in µg/mL, H37Rv.
Write the number in µg/mL without appending the unit.

Please review the following examples before continuing.
Briefly, MIC in µg/mL, H37Rv measured for CC[C@@H](C)[C@@H](NC(=O)[C@@H](CCCCN)NC(=O)[C@H](N)Cc1c[nH]c2ccccc12)C(=O)N[C@@H](C(=O)N[C@H](Cc1ccccc1)C(=O)NCC(=O)N[C@H](Cc1c[nH]c2ccccc12)C(=O)N[C@H](CCCNC(=N)N)C(=O)N[C@H](CCCNC(=N)N)C(N)=O)C(C)C [wkivfGwrr] (H-[dW][dK][dI][dV][dF]G[dW][dR][dR]-NH2; N-terminus assumed) : 20

Briefly, MIC in µg/mL, H37Rv measured for CC[C@@H](C)[C@@H](NC(=O)[C@@H](CCCCN)NC(=O)[C@H](N)Cc1c[nH]c2ccccc12)C(=O)N[C@@H](C(=O)N[C@H](Cc1ccccc1)C(=O)N[C@H](CC(=O)O)C(=O)N[C@H](Cc1c[nH]c2ccccc12)C(=O)N[C@H](CCCNC(=N)N)C(=O)N[C@H](CCCNC(=N)N)C(N)=O)C(C)C [wkivfdwrr] (H-[dW][dK][dI][dV][dF][dD][dW][dR][dR]-NH2) : 20

Okay, next one:
Briefly, MIC in µg/mL, H37Rv measured for CC[C@@H](C)[C@@H](NC(=O)[C@@H](CCCCN)NC(=O)[C@H](N)Cc1c[nH]c2ccccc12)C(=O)N[C@H](CO)C(=O)N[C@H](Cc1ccccc1)C(=O)N[C@H](Cc1c[nH]c2ccccc12)C(=O)N[C@H](Cc1c[nH]c2ccccc12)C(=O)N[C@H](CCCNC(=N)N)C(=O)N[C@H](CCCNC(=N)N)C(N)=O [wkisfwwrr] (H-[dW][dK][dI][dS][dF][dW][dW][dR][dR]-NH2; N-terminus assumed) : 20
